# testSummary: cAMP Responsive Elements (CRE) small molecule agonists, cell-based qHTS assay: qHTS cell viability counter screen (AID 2060914); note: potency is the fitted concentration of half-maximal effect;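 note: viability read after 3 h of compound exposure; nearly all actives have a fitted effect of over 50% in size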
# settings: CRE-bla HEK293T viability, CellTiter-Glo luminescence, 5 h; series mostly up to 92.4 µM
Results filed as inconclusive are left out. Active and inactive are the calls of the source. Calls come from the whole dose curve; as a rule, active = well fitted cell-killing curve with a large enough effect in the repeat runs; inconclusive = weak or mixed curves, or effect the other way; inactive = flat fitted curve, though single readings scatter.
assayEndpoint: Potency

Field: example entries. Status: answers known.
Looking for the measured Potency of Cc1ccc(N=C=O)cc1N=C=O , can you help? inactive

Looking for the measured Potency of CCOc1cc(Oc2ccc(C(F)(F)F)cc2Cl)ccc1[N+](=O)[O-] , can you help? inactive

Looking for the measured Potency of CC(=O)c1cc(C(C)(C)C)cc2c1CCC2(C)C , can you help? inactive

Looking for the measured Potency of CC1NCCOC1c1ccccc1 (stereo not drawn) , can you help? inactive

Looking for the measured Potency of Cc1cccc(N)c1C , can you help? inactive

***
Looking for the measured Potency of O=Cc1ccco1 , can you help? inactive

Looking for the measured Potency of COc1ccc(C=O)cc1O , can you help? inactive

Looking for the measured Potency of CSc1nc(N=[N+]=[N-])nc(NC(C)C)n1 , can you help? inactive

----------
# testSummary: cAMP Responsive Elements (CRE) small molecule antagonists, cell-based qHTS assay: qHTS cell viability counter screen (AID 2060913); note: nearly all actives have a fitted effect of over 40% in size
# settings: CRE-bla HEK293T viability, CellTiter-Glo luminescence, 5 h; series mostly up to 92.4 µM
# From the text: U.S. Tox21 Program National Center for Advancing Translational Sciences [NCATS] Division of Preclinical Innovation [DPI] U.S. Environmental Protection Agency [EPA] National Institutes of Environmental Health Sciences [NIEHS] National Toxicology Program [NTP] U.S. Food and Drug Administration [FDA] […] The activation of the report gene under culture conditions can be detected by fluorescence intensity. […]
Results filed as inconclusive are left out. Activity calls are given as the source filed them. Calls follow the shape of the dose curve; as a rule, active = well fitted cell-killing curve with a large enough effect in the repeat runs; inconclusive = weak or mixed curves, or effect the other way; inactive = flat fitted curve, though single readings scatter.
assayEndpoint: outcome

Field: example entries. Status: answers known.
Looking for the measured outcome of COC(=O)NC(=S)Nc1ccccc1NC(=S)NC(=O)OC , can you help? inactive

Looking for the measured outcome of Nc1ccc(-c2ccccc2)cc1 , can you help? inactive

Looking for the measured outcome of NCCc1ccc(O)cc1 , can you help? inactive

Looking for the measured outcome of CNC(=O)Oc1cc(C)cc(C(C)C)c1 , can you help? inactive

Looking for the measured outcome of O=C(O)c1cc(Oc2ccc(C(F)(F)F)cc2Cl)ccc1[N+](=O)[O-] , can you help? inactive

Looking for the measured outcome of C=CCSSCC=C , can you help? inactive

Looking for the measured outcome of Clc1ccc(C2(Cn3cncn3)CC(Br)CO2)c(Cl)c1 (configuration not stated) , can you help? inactive

Looking for the measured outcome of Brc1cccc(-c2ccccc2)c1 , can you help? inactive

Looking for the measured outcome of CCC/C(=N\OCC)C1=C(O)CC(CC(C)SCC)CC1=O (configuration not stated) , can you help? inactive

Looking for the measured outcome of NCCCNCCCN , can you help? inactive

***
Looking for the measured outcome of CCOC(=O)c1ccccc1S(=O)(=O)NC(=O)Nc1nc(Cl)cc(OC)n1 , can you help? inactive

Looking for the measured outcome of COc1cc(N)c(Cl)cc1C(=O)NC1CN2CCC1CC2 (configuration not stated) , can you help? inactive

----------
# testSummary: cAMP Responsive Elements (CRE) small molecule agonists, cell-based qHTS assay: qHTS cell viability counter screen (AID 2060914)
# settings: CRE-bla HEK293T viability, CellTiter-Glo luminescence, 5 h; series mostly up to 92.4 µM
Inconclusive results are not listed. Calls of active or inactive are those of the source. Calls follow the shape of the dose curve; as a rule, active = well fitted cell-killing curve with a large enough effect in the repeat runs; inconclusive = weak or mixed curves, or effect the other way; inactive = flat fitted curve, though single readings scatter.
Thanks in advance; please answer with one of these: true (1) (active), false (0) (inactive)

Sample answers from the record:
Hi team, can someone confirm the assay call for CCC(C(N)=O)N1CCCC1=O (stereo unspecified) ? false (0)

Hi team, can someone confirm the assay call for FC(F)(F)c1cccc(C2=CCN(CCc3ccc4ccccc4c3)CC2)c1 ? false (0)

Hi team, can someone confirm the assay call for C[C@]12CC[C@H]3[C@@H](CCC4=CC(=O)CC[C@@]43C)[C@@H]1CC[C@@H]2C(=O)O ? false (0)

Hi team, can someone confirm the assay call for COc1ccccc1N1CCNCC1 ? false (0)

***
Hi team, can someone confirm the assay call for OC(Cc1ccccc1Cl)(Cn1cncn1)C1(Cl)CC1 (stereo unspecified) ? false (0)

Hi team, can someone confirm the assay call for Nc1cc2c3c(c1)C(c1ccccc1)=N[C@@H](NC(=O)c1cccnc1)C(=O)N3CC2 ? false (0)

Hi team, can someone confirm the assay call for O=C(O)COc1ccc(Cl)cc1 ? false (0)

Hi team, can someone confirm the assay call for C=CC1CC=CCC1 (stereo unspecified) ? false (0)

Hi team, can someone confirm the assay call for O=[N+]([O-])c1ccc(CCl)cc1 ? false (0)

----------
# testSummary: cAMP Responsive Elements (CRE) small molecule agonists, cell-based qHTS assay: qHTS cell viability counter screen (AID 2060914)
# settings: CRE-bla HEK293T viability, CellTiter-Glo luminescence, 5 h; series mostly up to 92.4 µM
Inconclusive results are not listed. The source made the active and inactive calls. Calls follow the shape of the dose curve; as a rule, active = well fitted cell-killing curve with a large enough effect in the repeat runs; inconclusive = weak or mixed curves, or effect the other way; inactive = flat fitted curve, though single readings scatter.
assayEndpoint: outcome

Looking for the measured outcome of CCOCCOC(C)=O , can you help? inactive

Looking for the measured outcome of CCC(=O)c1ccccc1 , can you help? inactive

Looking for the measured outcome of O=[N+]([O-])c1ccc(Nc2ccccc2)cc1 , can you help? inactive

----------
# testSummary: cAMP Responsive Elements (CRE) small molecule agonists, cell-based qHTS assay: qHTS cell viability counter screen (AID 2060914);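 note: viability read after 3 h of compound exposure; nearly all actives have a fitted effect of over 50% in size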
# settings: CRE-bla HEK293T viability, CellTiter-Glo luminescence, 5 h; series mostly up to 92.4 µM
Records with an inconclusive call do not appear. Activity calls are given as the source filed them. Calls follow the shape of the dose curve; as a rule, active = well fitted cell-killing curve with a large enough effect in the repeat runs; inconclusive = weak or mixed curves, or effect the other way; inactive = flat fitted curve, though single readings scatter.
Thanks in advance; please answer with one of these: yes (1) for active, no (0) for inactive

Hi team, can someone confirm the assay call for O=C1NCN(c2ccccc2)C12CCN(CC1COc3ccccc3O1)CC2 (stereo not given) ? no (0)

Hi team, can someone confirm the assay call for C1CCC(NC2CCCCC2)CC1 ? no (0)

Hi team, can someone confirm the assay call for CCOc1nc(C(Cl)(Cl)Cl)ns1 ? no (0)

Hi team, can someone confirm the assay call for CCC(C)(C#N)N=NC(C)(C#N)CC (stereo not given) ? no (0)

Field: next compound
Hi team, can someone confirm the assay call for COc1cc(OC)nc(NC(=O)NS(=O)(=O)c2ncccc2C(=O)N(C)C)n1 ? no (0)

----------
# testSummary: cAMP Responsive Elements (CRE) small molecule agonists, cell-based qHTS assay: qHTS cell viability counter screen (AID 2060914);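 note: viability read after 3 h of compound exposure; nearly all actives have a fitted effect of over 50% in size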
# settings: CRE-bla HEK293T viability, CellTiter-Glo luminescence, 5 h; series mostly up to 92.4 µM
Results filed as inconclusive are left out. Calls of active or inactive are those of the source. The call rests on the fitted dose curve; in most records, active means well fitted cell-killing curve with a large enough effect in the repeat runs; inconclusive means weak or mixed curves, or effect the other way; inactive means flat fitted curve, though single readings scatter.
Thanks in advance; please answer with one of these: active, inactive

Hi team, can someone confirm the assay call for N#Cc1sc2c(=O)c3ccccc3c(=O)c=2sc1C#N ? active

Field: next molecule
Hi team, can someone confirm the assay call for O=C(NC(=O)c1cc(F)c(F)cc1Cl)Nc1cc(F)ccc1N1CCC(C(=O)O)CC1 ? inactive

----------
# testSummary: cAMP Responsive Elements (CRE) small molecule agonists, cell-based qHTS assay: qHTS cell viability counter screen (AID 2060914);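 note: viability read after 3 h of compound exposure; nearly all actives have a fitted effect of over 50% in size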
# settings: CRE-bla HEK293T viability, CellTiter-Glo luminescence, 5 h; series mostly up to 92.4 µM
Results filed as inconclusive are left out. Calls of active or inactive are those of the source. Calls come from the whole dose curve; as a rule, active = well fitted cell-killing curve with a large enough effect in the repeat runs; inconclusive = weak or mixed curves, or effect the other way; inactive = flat fitted curve, though single readings scatter.
Thanks in advance; please answer with one of these: active, inactive

Sample answers from the record:
Hi team, can someone confirm the assay call for CC1N=C(N)OC1c1ccccc1 (stereo not given) ? inactive

Hi team, can someone confirm the assay call for CCOP(=O)(SC(C)CC)N1CCSC1=O (stereo not given) ? inactive

Hi team, can someone confirm the assay call for CCC/C(=N\OCC)C1=C(O)CC(CC(C)SCC)CC1=O (stereo not given) ? inactive

Hi team, can someone confirm the assay call for C[C@H]1[C@@H]2Cc3ccc(O)cc3[C@@]1(C)CCN2C ? inactive

Hi team, can someone confirm the assay call for BrCCCCBr ? inactive

***
Hi team, can someone confirm the assay call for C=CCCC#N ? inactive

Hi team, can someone confirm the assay call for COc1nn(C(=O)NS(=O)(=O)c2ccccc2OC(F)(F)F)c(=O)n1C ? inactive

Hi team, can someone confirm the assay call for CCN(CC)C(=S)[S-].CCN(CC)C(=S)[S-].[Zn+2] ? active

Hi team, can someone confirm the assay call for c1ccc2cc3c(cc2c1)-c1cccc2cccc-3c12 ? inactive

Hi team, can someone confirm the assay call for CC(O)CN(CC(C)O)CC(C)O (stereo not given) ? inactive

Hi team, can someone confirm the assay call for Cc1ccccc1O ? inactive

Hi team, can someone confirm the assay call for CCC[N+]1(C)CCCCC1 ? inactive

Hi team, can someone confirm the assay call for COC(=O)C(c1ccccc1)C1CCCCN1 (stereo not given) ? inactive

Hi team, can someone confirm the assay call for FC(F)OC(F)(F)C(F)Cl (stereo not given) ? inactive

Hi team, can someone confirm the assay call for CCCn1cc[n+](C)c1 ? inactive

Hi team, can someone confirm the assay call for N#CC(Cl)(Cl)Cl ? inactive

Hi team, can someone confirm the assay call for O=[N+]([O-])c1cc(Cl)c(Cl)c(Cl)c1 ? inactive

Hi team, can someone confirm the assay call for CNc1cnn(-c2cccc(C(F)(F)F)c2)c(=O)c1Cl ? inactive

Hi team, can someone confirm the assay call for CN(C)[C@@H]1C(=O)C(C(N)=O)=C(O)[C@@]2(O)C(=O)C3=C(O)c4c(O)cccc4[C@@](C)(O)[C@H]3[C@H](O)[C@@H]12 ? inactive

Hi team, can someone confirm the assay call for C[C@H]1O[C@H](OC2[C@@H](O)[C@@H](O)C(O)[C@H](O)[C@H]2O)[C@@H](N)C[C@@H]1N=C(N)C(=O)O (stereo not given in full) ? inactive

Hi team, can someone confirm the assay call for COc1cc(CC(C)N)cc2c1OCO2 (stereo not given) ? inactive

Hi team, can someone confirm the assay call for C[C@@H](N)[C@@H](O)c1ccccc1 ? inactive

Hi team, can someone confirm the assay call for ClC(Br)Br ? inactive

Hi team, can someone confirm the assay call for C#CCN1C(=O)COc2cc(F)c(N3C(=O)C4=C(CCCC4)C3=O)cc21 ? inactive

Hi team, can someone confirm the assay call for CC(=O)[O-].CC(=O)[O-].CC(=O)[O-].[Cr+3] ? inactive
